Hi there, I'd appreciate the recorded Ki for every entry that follows.

# input Retrieve Ki on Adenosine receptor A1 (Cavia porcellus, UniProt P47745); query CCCn1c(=O)c2nc(/C=C/c3ccc(Cl)c(Cl)c3)[nH]c2n(CCC)c1=O
# Sequence (P47745 whole entry): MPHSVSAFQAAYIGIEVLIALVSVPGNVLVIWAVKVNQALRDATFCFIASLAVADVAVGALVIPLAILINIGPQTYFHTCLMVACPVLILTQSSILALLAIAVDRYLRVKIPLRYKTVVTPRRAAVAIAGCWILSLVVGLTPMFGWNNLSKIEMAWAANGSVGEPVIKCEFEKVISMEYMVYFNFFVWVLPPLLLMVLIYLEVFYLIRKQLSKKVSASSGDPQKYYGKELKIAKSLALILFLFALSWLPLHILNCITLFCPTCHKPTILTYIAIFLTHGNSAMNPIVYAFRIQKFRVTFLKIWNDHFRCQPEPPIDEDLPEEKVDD
# output > 100 µM

# input Retrieve Ki on Adenosine receptor A1 (Cavia porcellus, UniProt P47745); query C=CCn1c(=O)c2c(nc(/C=C/c3cc(OC)c(OC)c(OC)c3)n2C)n(CC=C)c1=O
# output > 100 µM

# input Retrieve Ki on Adenosine receptor A1 (Cavia porcellus, UniProt P47745); query CCCn1c(=O)c2nc(/C=C/c3ccc(OC)cc3)[nH]c2n(CCC)c1=O
# output > 100 µM

# input Retrieve Ki on Adenosine receptor A1 (Cavia porcellus, UniProt P47745); query CCCn1c(=O)c2nc(/C(C)=C/c3ccccc3)[nH]c2n(CCC)c1=O
# output > 100 µM

###

Hi there, I'd appreciate the recorded Ki for every entry that follows.
Provide only the numeric value, understood in nM.

# input Retrieve Ki on Adenosine A2 receptor (Rattus norvegicus, UniProt P29276+P30543); query CCCn1c(=O)c2c(nc(CCc3ccccc3)n2C)n(CCC)c1=O
# output 2200

# input Retrieve Ki on Adenosine A2 receptor (Rattus norvegicus, UniProt P29276+P30543); query CCCn1c(=O)c2c(nc(/C=C/c3ccc(OC)cc3)n2C)n(CCC)c1=O
# output 18

# input Retrieve Ki on Adenosine A2 receptor (Rattus norvegicus, UniProt P29276+P30543); query CCCCn1c(=O)c2nc(/C=C/c3cc(OC)c(OC)c(OC)c3)[nH]c2n(CCCC)c1=O
# output 93

# input Retrieve Ki on Adenosine A2 receptor (Rattus norvegicus, UniProt P29276+P30543); query CCCn1c(=O)c2nc(CCc3ccccc3)[nH]c2n(CCC)c1=O
# output 6200

# input Retrieve Ki on Adenosine A2 receptor (Rattus norvegicus, UniProt P29276+P30543); query CCCn1c(=O)c2nc(/C=C/c3ccc(OC)cc3)[nH]c2n(CCC)c1=O
# output 110

# input Retrieve Ki on Adenosine A2 receptor (Rattus norvegicus, UniProt P29276+P30543); query CCCn1c(=O)c2c(nc(/C=C/c3cc(OC)c(OC)c(OC)c3)n2C)n(CCC)c1=O
# output 14

# input Retrieve Ki on Adenosine A2 receptor (Rattus norvegicus, UniProt P29276+P30543); query CCCCn1c(=O)c2c(nc(/C=C/c3cc(OC)c(OC)c(OC)c3)n2C)n(CCCC)c1=O
# output 52

# input Retrieve Ki on Adenosine A2 receptor (Rattus norvegicus, UniProt P29276+P30543); query CCCn1c(=O)c2nc(C/C=C/c3ccccc3)[nH]c2n(CCC)c1=O
# output 1600

# input Retrieve Ki on Adenosine A2 receptor (Rattus norvegicus, UniProt P29276+P30543); query CCCn1c(=O)c2c(nc(/C=C/c3ccc(Cl)c(Cl)c3)n2C)n(CCC)c1=O
# output 7500

# input Retrieve Ki on Adenosine A2 receptor (Rattus norvegicus, UniProt P29276+P30543); query C=CCn1c(=O)c2nc(/C=C/c3cc(OC)c(OC)c(OC)c3)[nH]c2n(CC=C)c1=O
# output 47

# input Retrieve Ki on Adenosine A2 receptor (Rattus norvegicus, UniProt P29276+P30543); query CCCn1c(=O)c2nc(CCC3CCCC3)[nH]c2n(CCC)c1=O
# output 6000

# input Retrieve Ki on Adenosine A2 receptor (Rattus norvegicus, UniProt P29276+P30543); query CCCn1c(=O)c2c(nc(/C=C/c3ccc(Cl)cc3)n2C)n(CCC)c1=O
# output 49

# input Retrieve Ki on Adenosine A2 receptor (Rattus norvegicus, UniProt P29276+P30543); query CCCn1c(=O)c2nc(/C=C/c3ccccc3)[nH]c2n(CCC)c1=O
# output 26

# input Retrieve Ki on Adenosine A2 receptor (Rattus norvegicus, UniProt P29276+P30543); query CCCn1c(=O)c2c(nc(C/C=C/c3ccccc3)n2C)n(CCC)c1=O
# output 1800

###

Readout name: Ki

# input Retrieve Ki on Adenosine A2 receptor (Rattus norvegicus, UniProt P29276+P30543); query CCCn1c(=O)c2nc(/C(C)=C/c3ccccc3)[nH]c2n(CCC)c1=O
# output > 10 µM

# input Retrieve Ki on Adenosine A2 receptor (Rattus norvegicus, UniProt P29276+P30543); query CCCn1c(=O)c2c(nc(/C(C)=C/c3ccccc3)n2C)n(CCC)c1=O
# output > 10 µM

# input Retrieve Ki on Adenosine A2 receptor (Rattus norvegicus, UniProt P29276+P30543); query CCCn1c(=O)c2nc(/C=C/c3ccc(Cl)c(Cl)c3)[nH]c2n(CCC)c1=O
# output > 100 µM

# input Retrieve Ki on Adenosine A2 receptor (Rattus norvegicus, UniProt P29276+P30543); query CCCn1c(=O)c2c(nc(C3CCCC3)n2C)n(CCC)c1=O
# output > 100 µM

# input Retrieve Ki on Adenosine A2 receptor (Rattus norvegicus, UniProt P29276+P30543); query CCCn1c(=O)c2c(nc(CCC3CCCC3)n2C)n(CCC)c1=O
# output > 10 µM

# input Retrieve Ki on Adenosine A2 receptor (Rattus norvegicus, UniProt P29276+P30543); query CCCn1c(=O)c2nc(/C=C/c3ccc(Cl)cc3)[nH]c2n(CCC)c1=O
# output > 100 µM
